assay: Stability in human plasma assessed as remaining compound at 10 uM incubated for 30 mins by LC-MS analysis; type: ADME, cell-free; conditions: read-out: Stability
OBSERVED_PROPERTY: remaining at 0.5 h, 10 µM (%)
Answers are plain numbers, in %.

Batch request: remaining at 0.5 h, 10 µM for each of the following compounds.
1. COc1ccc([C@@H]2Sc3ccccc3N(CCN(C)C)C(=O)[C@@H]2OC(C)=O)cc1
2. COc1ccc(-c2nn(-c3cccc(NC(=O)c4cccc(C(F)(F)F)c4)c3)cc2-c2ccncc2)cc1Cl
3. CCN(CC)CCOC(=O)c1ccc(N)cc1

Solution:
[91.5, 100, 1.2]
